Tested on: Escherichia coli TOP10;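 further: peptides expressed intracellularly from a pBAD plasmid library in pooled LB shake-flask culture, induced with 0.3% L-arabinose, DNA abundance read by NGS, three biological replicates, DESeq2 with apeglm shrinkage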
Assay: shrunken log2 fold change of peptide-encoding DNA abundance (4.5 h post-induction vs induction); higher = less antimicrobial activity (less host growth inhibition)
Details: time post-induction: 4.5 h; library: site-saturation at positions 5, 18, 19, 20
QUANTITY KIND: shrunken log2 fold change

> print(dat)
            sequence.string  measured.value
 1  RRIRTRPPRLPRPRPRPHLPPRP           0.236
 2  RRIRPRPPRLPRPRPRPSAEPRP           0.257
 3  RRIRTRPPRLPRPRPRPREYPRP        -0.00842
 4  RRIRLRPPRLPRPRPRPHRQPRP           0.115
 5  RRIRPRPPRLPRPRPRPCPGPRP         -0.0306
 6  RRIRPRPPRLPRPRPRPPEQPRP           0.206
 7  RRIRIRPPRLPRPRPRPVFWPRP           0.201
 8  RRIRHRPPRLPRPRPRPVRQPRP          0.0261
 9  RRIRQRPPRLPRPRPRPGWEPRP        -0.00991
10  RRIRARPPRLPRPRPRPEIRPRP           0.132
11  RRIRPRPPRLPRPRPRPTGDPRP           0.649
12  RRIRHRPPRLPRPRPRPVYNPRP          -0.303
13  RRIRIRPPRLPRPRPRPQEFPRP          0.0204
14  RRIRERPPRLPRPRPRPLVVPRP          0.0509
15  RRIRMRPPRLPRPRPRPRIYPRP         -0.0363
